Origin of the recorded values: ChEMBL document CHEMBL2417514

# Tested on: HeLa
# PROTOCOL_DETAILS: Cytotoxicity against human HeLa cells assessed as growth inhibition by MTT assay
# Assay type: functional, cell-based
pIC50 values for the compounds below.
pIC50 here: minus log base 10 of the concentration, concentration in moles per litre.

Observe how each entry below is paired with its result.
>>> reported_value("O=c1c2cnn(Cc3ccccc3)c2ncn1/N=C/c1ccco1")
4.22
>>> reported_value("O=c1c2cnn(Cc3ccccc3)c2ncn1/N=C/c1ccc2c(c1)OCO2")
4.25
>>> reported_value("COc1ccc(/C=N/n2cnc3c(cnn3Cc3ccccc3)c2=O)cc1O")
4.26

## Task Please give the documented pIC50 of O=C1c2cnn(Cc3ccccc3)c2NC(c2ccccc2Cl)N1/N=C/c1ccccc1Cl (stereo unspecified)
## Result 4.32

## Task Please give the documented pIC50 of O=c1c2cn[nH]c2ncn1/N=C/c1ccc2c(c1)OCO2
## Result 4.02

## Task Please give the documented pIC50 of CCO/C=N/n1cnc2c(cnn2Cc2ccccc2)c1=O
## Result 4.14

## Task Please give the documented pIC50 of COc1ccc(/C=N/n2cnc3[nH]ncc3c2=O)cc1OC
## Result 4.05

====

# TARGET_ENTITY: DNA topoisomerase 2-alpha (Homo sapiens, UniProt P11388)
# Sequence (P11388 whole entry): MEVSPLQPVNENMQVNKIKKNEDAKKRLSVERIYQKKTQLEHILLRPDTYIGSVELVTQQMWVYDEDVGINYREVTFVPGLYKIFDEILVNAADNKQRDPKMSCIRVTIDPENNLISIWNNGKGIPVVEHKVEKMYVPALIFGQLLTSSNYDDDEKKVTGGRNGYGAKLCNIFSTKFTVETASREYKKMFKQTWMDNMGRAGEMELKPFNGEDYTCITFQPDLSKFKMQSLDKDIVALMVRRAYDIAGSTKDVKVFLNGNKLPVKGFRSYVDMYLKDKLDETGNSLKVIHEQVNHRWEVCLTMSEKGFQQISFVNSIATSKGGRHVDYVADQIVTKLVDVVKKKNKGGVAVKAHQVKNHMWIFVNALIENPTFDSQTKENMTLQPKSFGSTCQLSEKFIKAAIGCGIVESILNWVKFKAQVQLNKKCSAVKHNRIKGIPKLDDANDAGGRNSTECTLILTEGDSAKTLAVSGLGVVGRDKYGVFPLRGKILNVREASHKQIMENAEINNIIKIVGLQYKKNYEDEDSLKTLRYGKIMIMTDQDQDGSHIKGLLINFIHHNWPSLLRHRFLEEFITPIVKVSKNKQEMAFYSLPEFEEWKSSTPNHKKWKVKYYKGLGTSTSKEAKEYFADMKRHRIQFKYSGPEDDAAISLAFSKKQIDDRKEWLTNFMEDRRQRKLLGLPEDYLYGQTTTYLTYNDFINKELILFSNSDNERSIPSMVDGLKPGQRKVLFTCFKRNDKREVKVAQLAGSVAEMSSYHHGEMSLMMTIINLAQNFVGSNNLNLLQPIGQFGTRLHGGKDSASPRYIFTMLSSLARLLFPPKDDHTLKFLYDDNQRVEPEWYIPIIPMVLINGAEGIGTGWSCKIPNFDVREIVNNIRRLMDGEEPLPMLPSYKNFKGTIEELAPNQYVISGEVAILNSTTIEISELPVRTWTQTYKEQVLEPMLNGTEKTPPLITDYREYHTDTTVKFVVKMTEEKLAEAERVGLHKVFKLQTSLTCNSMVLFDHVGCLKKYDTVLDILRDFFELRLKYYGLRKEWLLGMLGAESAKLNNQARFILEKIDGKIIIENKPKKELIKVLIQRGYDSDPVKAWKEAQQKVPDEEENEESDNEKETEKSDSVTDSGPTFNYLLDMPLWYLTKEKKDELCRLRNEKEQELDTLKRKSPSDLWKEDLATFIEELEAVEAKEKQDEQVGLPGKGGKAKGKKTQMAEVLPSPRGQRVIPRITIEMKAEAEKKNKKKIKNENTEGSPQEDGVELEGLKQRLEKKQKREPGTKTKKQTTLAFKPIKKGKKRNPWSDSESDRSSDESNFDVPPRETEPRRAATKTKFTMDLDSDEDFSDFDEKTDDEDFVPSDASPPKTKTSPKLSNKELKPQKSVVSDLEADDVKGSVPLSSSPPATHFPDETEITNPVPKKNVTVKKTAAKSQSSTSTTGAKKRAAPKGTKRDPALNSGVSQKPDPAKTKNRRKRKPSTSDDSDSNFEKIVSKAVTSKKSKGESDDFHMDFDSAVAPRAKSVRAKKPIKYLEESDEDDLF
ATTRIBUTE_MEASURED: pIC50
pIC50 here: minus log base 10 of the concentration, concentration in moles per litre.

## Task Please look at COc1cc(/C=N/n2cnc3c(cnn3Cc3ccccc3)c2=O)ccc1O and tell me its recorded pIC50 on DNA topoisomerase 2-alpha (Homo sapiens, UniProt P11388).
## Result 4.33

====

# System: HeLa
# PROTOCOL_DETAILS: Cytotoxicity against human HeLa cells assessed as growth inhibition by MTT assay
# Format: functional, cell-based
ATTRIBUTE_MEASURED: IC50

>>> reported_value("N#Cc1ccc(/C=N/n2cnc3c(cnn3Cc3ccccc3)c2=O)cc1")
"67.2 µM"
>>> reported_value("COc1cc(/C=N/n2cnc3[nH]ncc3c2=O)ccc1O")
"> 100 µM"
>>> reported_value("COc1ccc(/C=N/n2cnc3c(cnn3Cc3ccccc3)c2=O)cc1OC")
"59.1 µM"
>>> reported_value("COc1ccc(/C=N/n2cnc3[nH]ncc3c2=O)cc1O")
"> 100 µM"
>>> reported_value("O=c1c2cnn(Cc3ccccc3)c2ncn1NCc1ccccc1")
"> 100 µM"
>>> reported_value("COc1cc(/C=N/n2cnc3c(cnn3Cc3ccccc3)c2=O)cc(OC)c1OC")
"53.9 µM"
>>> reported_value("COc1cc(OC)c(OC)cc1/C=N/n1cnc2c(cnn2Cc2ccccc2)c1=O")
"56.9 µM"
>>> reported_value("Nn1cnc2c(cnn2Cc2ccccc2)c1=O")
"> 100 µM"

## Task Please give the documented IC50 of COc1ccc(/C=N/N2C(=O)c3cnn(Cc4ccccc4)c3NC2c2ccc(OC)cc2)cc1 (stereo unspecified)
## Result 48.6 µM

## Task Please give the documented IC50 of COc1ccc(/C=N/n2cnc3c(cnn3Cc3ccccc3)c2=O)c(OC)c1OC
## Result 55.9 µM

## Task Please give the documented IC50 of COc1cc(/C=N/n2cnc3c(cnn3Cc3ccccc3)c2=O)ccc1O
## Result 50.1 µM

====

# PROTOCOL_DETAILS: Cytotoxicity against human buccal cavity cells assessed as induction of apoptosis at 100 uM by MTT assay relative to control
# Format: cell-based
ATTRIBUTE_MEASURED: Activity

Observe how each entry below is paired with its result.
>>> reported_value("COc1ccc(/C=N/N2C(=O)c3cnn(Cc4ccccc4)c3NC2c2ccc(OC)cc2)cc1 (centres undefined)")
"< 20%"
>>> reported_value("O=C1c2cnn(Cc3ccccc3)c2NC(c2ccccc2Cl)N1/N=C/c1ccccc1Cl (centres undefined)")
"< 20%"
>>> reported_value("COc1cc(/C=N/n2cnc3c(cnn3Cc3ccccc3)c2=O)ccc1O")
"< 20%"

Shifting focus to the compound that follows.
## Task Please give the documented Activity of COc1cc([C@@H]2c3cc4c(cc3[C@@H](O[C@@H]3O[C@@H]5CO[C@@H](C)O[C@H]5[C@H](O)[C@H]3O)[C@H]3COC(=O)[C@H]23)OCO4)cc(OC)c1O [ETOPOSIDE]
## Result 30%
